Origin of values: patent US12552775B2

- tested on: HiBit-BRG1 fusion protein (Homo sapiens, UniProt P51532)
- Construct: expressed in transfected cells
- Sequence (P51532 whole entry, the tested form may be a part): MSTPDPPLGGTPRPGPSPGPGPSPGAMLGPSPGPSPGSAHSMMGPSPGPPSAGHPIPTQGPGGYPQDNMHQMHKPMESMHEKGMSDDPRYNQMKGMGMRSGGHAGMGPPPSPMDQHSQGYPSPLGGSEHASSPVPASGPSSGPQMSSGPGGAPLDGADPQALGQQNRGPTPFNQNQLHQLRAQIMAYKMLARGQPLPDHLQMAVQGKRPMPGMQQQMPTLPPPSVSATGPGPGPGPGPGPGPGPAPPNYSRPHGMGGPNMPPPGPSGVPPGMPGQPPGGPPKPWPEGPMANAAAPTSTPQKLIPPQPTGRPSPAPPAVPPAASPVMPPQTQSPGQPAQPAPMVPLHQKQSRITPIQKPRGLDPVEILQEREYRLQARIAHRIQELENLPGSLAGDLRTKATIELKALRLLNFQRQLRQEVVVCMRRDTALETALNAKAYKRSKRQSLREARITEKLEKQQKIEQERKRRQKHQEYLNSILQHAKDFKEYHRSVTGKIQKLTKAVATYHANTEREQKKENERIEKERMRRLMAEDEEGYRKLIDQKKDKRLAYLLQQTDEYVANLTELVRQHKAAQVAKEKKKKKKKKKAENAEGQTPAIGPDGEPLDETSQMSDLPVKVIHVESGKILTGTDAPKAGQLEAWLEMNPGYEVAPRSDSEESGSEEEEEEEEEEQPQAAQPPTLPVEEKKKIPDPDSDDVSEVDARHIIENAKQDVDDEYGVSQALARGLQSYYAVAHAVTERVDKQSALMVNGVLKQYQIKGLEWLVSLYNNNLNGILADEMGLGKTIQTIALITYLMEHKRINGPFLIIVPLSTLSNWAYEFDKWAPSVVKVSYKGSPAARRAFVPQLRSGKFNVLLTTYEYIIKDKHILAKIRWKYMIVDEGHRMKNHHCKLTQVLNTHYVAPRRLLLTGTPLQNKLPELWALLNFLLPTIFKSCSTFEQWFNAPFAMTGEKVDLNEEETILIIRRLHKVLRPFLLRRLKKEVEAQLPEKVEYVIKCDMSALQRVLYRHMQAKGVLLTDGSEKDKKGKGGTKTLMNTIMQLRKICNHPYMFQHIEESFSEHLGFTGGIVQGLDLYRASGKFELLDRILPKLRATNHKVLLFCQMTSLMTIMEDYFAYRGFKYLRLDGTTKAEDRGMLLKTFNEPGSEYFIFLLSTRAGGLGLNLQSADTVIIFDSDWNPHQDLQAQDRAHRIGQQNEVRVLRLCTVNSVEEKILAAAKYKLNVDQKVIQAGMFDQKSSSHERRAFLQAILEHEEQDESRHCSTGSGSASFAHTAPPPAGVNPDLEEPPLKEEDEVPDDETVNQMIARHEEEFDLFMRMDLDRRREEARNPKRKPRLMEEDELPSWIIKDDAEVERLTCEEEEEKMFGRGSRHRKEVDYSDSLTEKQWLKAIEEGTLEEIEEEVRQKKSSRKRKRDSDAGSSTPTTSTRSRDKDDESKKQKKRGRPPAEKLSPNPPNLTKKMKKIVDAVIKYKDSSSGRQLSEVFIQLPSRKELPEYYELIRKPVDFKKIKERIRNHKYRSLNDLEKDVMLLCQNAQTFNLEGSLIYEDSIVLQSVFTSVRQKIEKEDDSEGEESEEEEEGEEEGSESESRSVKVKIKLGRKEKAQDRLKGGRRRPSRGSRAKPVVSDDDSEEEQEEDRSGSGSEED
- assay notes: HiBiT-BRG1 cell-based degradation assay (Nano-Glo HiBiT Lytic Detection, 24 h)
- protocol conditions: stable HeLa cell line expressing HiBit-BRG1 and LgBit, top dose 30 μM, read-out: BRG1 HiBit Degradation Maximum (%)
The following molecules are shown together with reported Dmax values.

Query :: Supply Dmax value. Item: Nc1nnc(-c2ccccc2O)cc1OCC12CC(C(=O)NCCOCc3cccc(COCCOc4ccc5c(c4)C(=O)N(C4CCC(=O)NC4=O)C5=O)c3)(C1)C2 (centres unmarked)
Result :: < 50%

Query :: Supply Dmax value. Item: Nc1nnc(-c2ccccc2O)cc1OCC12CC(CNC(=O)C3CCN(CCOc4ccc5c(c4)C(=O)N(C4CCC(=O)NC4=O)C5=O)CC3)(C1)C2 (centres unmarked)
Result :: < 50%

Query :: Supply Dmax value. Item: Nc1nnc(-c2ccccc2O)cc1OCC12CC(C(=O)N3CCN(CCCOCC#Cc4ccc5c(c4)C(=O)N(C4CCC(=O)NC4=O)C5=O)CC3)(C1)C2 (centres unmarked)
Result :: < 50%

Query :: Supply Dmax value. Item: Cc1ncsc1-c1ccc(CNC(=O)[C@@H]2C[C@@H](O)CN2C(=O)[C@@H](NC(=O)CCCCCCCCCNC(=O)C23CC(COc4cc(-c5ccccc5O)nnc4N)(C2)C3)C(C)(C)C)cc1
Result :: < 50%

Query :: Supply Dmax value. Item: Nc1nnc(-c2ccccc2O)cc1OCC12CC(C(=O)N3CCN(c4ccc5c(c4)C(=O)N(C4CCC(=O)NC4=O)C5=O)CC3)(C1)C2 (centres unmarked)
Result :: < 50%

Query :: Supply Dmax value. Item: Cc1ncsc1-c1ccc(CNC(=O)[C@@H]2C[C@@H](O)CN2C(=O)[C@@H](NC(=O)CCC(=O)NC23CC(CCOc4cc(-c5ccccc5O)nnc4N)(C2)C3)C(C)(C)C)cc1
Result :: < 50%

Query :: Supply Dmax value. Item: CN(CCNC(=O)COc1cccc2c1C(=O)N(C1CCC(=O)NC1=O)C2=O)CCNC(=O)C12CC(COc3cc(-c4ccccc4O)nnc3N)(C1)C2 (centres unmarked)
Result :: < 50%
